Reference source: PubChem BioAssay AID2060349

- System: 762968-020-R-J2-PDC spheroids viability
- Assay Notes: Anticancer human tumor 762968-020-R-J2-PDC patient-derived colon carcinoma cell line growth inhibition [TAK]
- Run Conditions: second compound 9.49 µM; first compound 1 µM; hits give low values; spheroids with HUVEC and MSC
Entries and their viability, T/C
Just the number in %, nothing appended.

[[record]]
compound = "CC(C)(C)c1nc(-c2cccc(NS(=O)(=O)c3c(F)cccc3F)c2F)c(-c2ccnc(N)n2)s1 + CC(C)NCC(C(=O)N1CCN(c2ncnc3c2C(C)CC3O)CC1)c1ccc(Cl)cc1"
result_units = "%"
quantitative_result = 79.9

[[record]]
compound = "Cc1nc(NC(=O)N2CCCC2C(N)=O)sc1-c1ccnc(C(C)(C)C(F)(F)F)c1 (centres undefined) + CC(C)NCC(C(=O)N1CCN(c2ncnc3c2C(C)CC3O)CC1)c1ccc(Cl)cc1"
result_units = "%"
quantitative_result = 106

[[record]]
compound = "CCCS(=O)(=O)Nc1ccc(F)c(C(=O)c2c[nH]c3ncc(-c4ccc(Cl)cc4)cc23)c1F + CC(C)NCC(C(=O)N1CCN(c2ncnc3c2C(C)CC3O)CC1)c1ccc(Cl)cc1"
result_units = "%"
quantitative_result = 94.1


Moving on to the next compound.
## Task Look up viability, T/C: COc1c(OCCCN2CCOCC2)ccc2c3n(c(=NC(=O)c4cnc(N)nc4)nc12)CCN3 + CC(C)NCC(C(=O)N1CCN(c2ncnc3c2C(C)CC3O)CC1)c1ccc(Cl)cc1
## Result 67

----------
- Test system: 762968-020-R-J2-PDC spheroids viability
- Assay Notes: Anticancer human tumor 762968-020-R-J2-PDC cell line growth inhibition [TAK];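 note: spheroids exposed to drug for 7 days before readout; 100% = DMSO vehicle control wells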
- Run Conditions: second compound 9.49 µM; first compound 0.1 µM; hits give low values; spheroids with HUVEC and MSC
Mark fulfilled only when viability, T/C stays strictly below 80%. Values equal to the cut-off are not fulfilled.

Would you please look over these solved cases?
[[record]]
molecule = "Cc1nc(NC(=O)N2CCCC2C(N)=O)sc1-c1ccnc(C(C)(C)C(F)(F)F)c1 (stereo unspecified) + CC(C)NCC(C(=O)N1CCN(c2ncnc3c2C(C)CC3O)CC1)c1ccc(Cl)cc1"
answer_label = "not fulfilled"

[[record]]
molecule = "CC(C)n1nc(-c2ccc3oc(N)nc3c2)c2c(N)ncnc21 + CC(C)NCC(C(=O)N1CCN(c2ncnc3c2C(C)CC3O)CC1)c1ccc(Cl)cc1"
answer_label = "fulfilled"


## Task Decide: viability, T/C of CC(C)(C)c1nc(-c2cccc(NS(=O)(=O)c3c(F)cccc3F)c2F)c(-c2ccnc(N)n2)s1 + CC(C)NCC(C(=O)N1CCN(c2ncnc3c2C(C)CC3O)CC1)c1ccc(Cl)cc1 strictly below 80%?
## Result not fulfilled

## Task Lab note: viability, T/C threshold 80%. Does this molecule come in strictly under it? COC1CC2CCC(C)C(O)(O2)C(=O)C(=O)N2CCCCC2C(=O)OC(C(C)CC2CCC(OCCO)C(OC)C2)CC(=O)C(C)C=C(C)C(O)C(OC)C(=O)C(C)CC(C)C=CC=CC=C1C (stereo unspecified) + CC(C)NCC(C(=O)N1CCN(c2ncnc3c2C(C)CC3O)CC1)c1ccc(Cl)cc1
## Result not fulfilled

## Task State whether 80% exceeds viability, T/C recorded for COc1c(OCCCN2CCOCC2)ccc2c3n(c(=NC(=O)c4cnc(N)nc4)nc12)CCN3 + CC(C)NCC(C(=O)N1CCN(c2ncnc3c2C(C)CC3O)CC1)c1ccc(Cl)cc1 .
## Result not fulfilled
